Where do the numbers come from? From PubChem BioAssay (NCI).

System: HCT-15 colon
Method Notes: NCI tumour cell line growth inhibition, 48 h; in the data active = GI50 below about 0.43 µM; inactive = the rest
API: response.call in active, inactive

Sample answers from the record:
[[record]]
smiles_repr = "CC[n+]1c(-c2ccccc2)c2cc(N)ccc2c2ccc(N)cc21"
assigned_label = "inactive"

[[record]]
smiles_repr = "CCOC(=O)c1cn(C)c2c(OC)c3ccccc3c(OC)c2c1=O"
assigned_label = "inactive"

[[record]]
smiles_repr = "Nc1nc(Cl)c2ncn(Cc3ccc(C45CC6CC(CC(C6)C4)C5)c(OCc4cc(F)c(F)cc4F)c3)c2n1"
assigned_label = "inactive"

[[record]]
smiles_repr = "Nc1c(C(=O)Nc2ccccc2)sc2nc3c(cc12)C(=O)CCC3"
assigned_label = "active"

[[record]]
smiles_repr = "COc1ccc(-c2cnc(-c3ccncc3-c3cccc(OC)c3)o2)cc1"
assigned_label = "active"


Exam item: Query: recorded result category for S=C(Sc1ccc(Cl)cc1)Sc1ccc(Cl)cc1 in this test
Marked response: inactive

Exam item: Query: recorded result category for Cn1cc(-c2ccc3ncc(-c4ccc(CC(=O)Nc5cc(C(C)(C)C)nn5C)cc4)cc3c2)cn1 in this test
Marked response: inactive
